Origin of values: patent US5118704A

- measurement_target: dopamine D1 receptors (Bos taurus)
- Construct: membranes derived from bovine caudate nuclei assay were employed; from tissue; host or cells: bovine caudate nuclei membranes (brains from a local slaughterhouse)
- test_summary: Radioligand binding to dopamine D1 receptors ([3H]-SCH23390, bovine caudate nuclei membranes)
pKi: −log10 of the molar value.
measured_endpoint: pKi

• CCCN(CCc1cccs1)C1CCc2c(O)cccc2C1 (racemic) [Example N-0437, reference compound] = 6.00
• CCCN(CCCn1c(C)ccc1C)C1CCc2c(O)cccc2C1 (centres unmarked) [Example 2] = 5.57

====

- measurement_target: dopamine D1 receptors (Bos taurus, UniProt Q95136)
- Construct: membranes derived from bovine caudate nuclei assay were employed; from tissue; host or cells: bovine caudate nuclei membranes (brains from a local slaughterhouse)
- Sequence (Q95136 whole entry): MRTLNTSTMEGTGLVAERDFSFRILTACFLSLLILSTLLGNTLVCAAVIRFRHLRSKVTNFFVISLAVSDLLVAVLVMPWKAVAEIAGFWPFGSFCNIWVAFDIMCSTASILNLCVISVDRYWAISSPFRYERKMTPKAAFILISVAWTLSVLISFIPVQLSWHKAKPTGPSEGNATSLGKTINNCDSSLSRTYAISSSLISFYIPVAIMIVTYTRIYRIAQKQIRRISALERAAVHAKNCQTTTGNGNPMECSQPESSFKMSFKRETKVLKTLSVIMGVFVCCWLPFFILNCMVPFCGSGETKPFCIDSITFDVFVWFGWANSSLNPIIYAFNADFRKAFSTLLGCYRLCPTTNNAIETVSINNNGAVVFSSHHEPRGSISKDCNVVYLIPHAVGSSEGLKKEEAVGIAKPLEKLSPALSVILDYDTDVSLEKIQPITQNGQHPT
- test_summary: Radioligand binding to dopamine D1 receptors ([3H]-SCH23390, bovine caudate nuclei membranes)
- applied_conditions: [3H]-SCH23390; bovine caudate membranes; 30 minutes at 37° C.; read-out: RECEPTOR AFFINITIES Ki, D1 (KL)
pKi: −log10 of the molar value.
Please enter T where pKi is greater than or equal to 5, and F where it is lower.

• CCCN(CCN1Cc2ccccc2C1)C1CCc2c(O)cccc2C1 (centres unmarked) [Example 14] = T
• CCCN(CCCN1Cc2ccccc2C1)C1CCc2c(O)cccc2C1 (centres unmarked) [Example 11] = T
• CCCN(CCN1C(=O)c2ccccc2C1=O)C1CCc2c(O)cccc2C1 (centres unmarked) [Example 13] = F
• CCCN(CCCN1C(=O)c2ccccc2C1=O)C1CCc2c(O)cccc2C1 (centres unmarked) [Example 10] = T
